# test-summary: probe aLefty2 binding to arrayed compounds – biochemical, biotinylated probe, 635/667 nm fluorescence, primary screen (AID 1094);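 also: score merges spot fluorescence near 667 nm with spot signal-to-noise ratio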
# assay-conditions: small-molecule microarray, higher = more signal
property-measured: composite z-score

[[record]]
compound = "O=C1[C@H]2C=C(Br)[C@H](C[C@@H]2OCCCCCCO)[C@@]12CO2"
property_measured = "composite z-score"
result_value = 0.0183

[[record]]
compound = "CN1C(=O)C2C=CC(C(O)C=Cc3ccc([N+](=O)[O-])cc3)N(Nc3ccccc3)C2C1=O (centres undefined)"
property_measured = "composite z-score"
result_value = 0.0849

[[record]]
compound = "COC(=O)[C@@]1(Cc2ccc(OC)cc2)[C@H]2c3cc(C(=O)N(C)C)n(Cc4ccc(C(F)(F)F)nc4)c3C[C@H]2CN1C(=O)c1ccccc1"
property_measured = "composite z-score"
result_value = 0.498

[[record]]
compound = "C=CCN1C(=O)[C@]2(Cc3ccccc3)N=C(c3ccc(OCCCO)cc3)O[C@@H]2c2ccccc21"
property_measured = "composite z-score"
result_value = 0.295


###

# test-summary: probe aEGFR binding to arrayed compounds – biochemical, biotinylated probe, 635/667 nm fluorescence, primary screen (AID 1097);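 also: probe is a biotinylated anti-EGFR antibody binding compounds printed on slides; score combines fluorescence near 667 nm and signal to noise of each spot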
# assay-conditions: small-molecule microarray, higher = more signal
# reported composite z-score; entries follow
property-measured: composite z-score

[[record]]
compound = "C=CCN(Cc1ccccc1)C(=O)C(c1cccs1)N(C(=O)/C=C\\C(=O)O)c1ccc(CCOCCO)cc1 (stereo not given)"
result_value = -0.32

[[record]]
compound = "COCCOC(=O)N1C(=O)[C@@]2(c3cc(C#CC4=CCCCC4)ccc31)[C@H](c1ccc(OCCO)cc1)N1[C@H](c3ccccc3)[C@H](c3ccccc3)OC(=O)[C@H]1[C@@H]2C(=O)N1CCc2cc(OC)c(OC)cc2C1"
result_value = 0.119

[[record]]
compound = "[N-]=[N+]=NCc1ccccc1[C@@H]1OC(c2ccc(OCCCO)cc2)=N[C@]1(CCS(=O)(=O)c1ccccc1)C(N)=O"
result_value = 0.388

[[record]]
compound = "CC(c1ccccc1)C(O)C1C=CC2C(=O)N(c3ccccc3)C(=O)C2N1Nc1ccccc1 (stereo not given)"
result_value = 0.0038

[[record]]
compound = "CCOC(=O)C[C@H]1[C@H](OC(=O)c2ccc(C(=O)c3ccccc3)cc2)[C@@H](NC(=O)c2ccccc2)c2cc(OCCCO)ccc2N1C(=O)c1ccccc1"
result_value = 0.121

[[record]]
compound = "CCCNC(=O)[C@@]1(Sc2ccc(C)cc2)CC(=O)N(Cc2ccccc2C(F)(F)F)[C@@H]1c1ccc(CO)cc1I"
result_value = -0.0435

[[record]]
compound = "O=C1N(CCS(=O)(=O)c2ccccc2)c2ccccc2[C@@H]2OC(c3ccc(OCCCO)cc3)=N[C@]12Cc1ccccc1"
result_value = -0.0435

[[record]]
compound = "COc1ccc(C(=O)Nc2cccc(CN3C(=O)[C@]4(O[C@H](CCn5cc(CCO)nn5)[C@@H]([Si](C)(C)c5ccc(OC)cc5)[C@@H]4C)c4ccccc43)c2)cc1"
result_value = 0.0848

[[record]]
compound = "C=CC[C@@]1(C(=O)N2CCCCC2)N=C(c2ccc(OCCCO)cc2)O[C@@H]1c1ccccc1CN=[N+]=[N-]"
result_value = 0.0528

[[record]]
compound = "CC(=O)Nc1cc(Br)ccc1C(=O)NCc1ccccc1"
result_value = -0.111

[[record]]
compound = "COC(=O)C[C@H]1O[C@@H](CCc2ccccc2)[C@@H](C)[C@@H]1[Si](C)(C)c1ccc(OC)cc1"
result_value = -0.206

[[record]]
compound = "CC1CC/C=C\\[C@H]2OC34C=CCN(c5ccc6ccccc6c5)C(=O)[C@H]3N(CCO)C(=O)[C@@H]4C2C(=O)O1 (stereo not given in full)"
result_value = -0.123

[[record]]
compound = "COC(=O)[C@@]1(Cc2ccccc2)[C@H]2c3cc(C(=O)N(C)C)n(Cc4ccc(OC)c(OC)c4)c3C[C@H]2CN1C(=O)c1ccccc1"
result_value = 0.426

[[record]]
compound = "CC(C)[Si](C#CCCCC#N)(Oc1ccccc1Br)C(C)C"
result_value = -0.0389

[[record]]
compound = "C#CCN(C/C=C/c1ccccc1)[C@H](CO)c1ccccc1"
result_value = -0.215


###

# composite z-score annotations
# Tested on: Fibrinogen (Alexa647-labelled)
# test-summary: Alexa647-fibrinogen binding to printed small molecules – biochemical, small-molecule microarray, 635/667 nm fluorescence, artefact control for SMM control-protein annotation, profiling panel (AID 1131);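 also: z-score merges 667 nm fluorescence with per-spot signal-to-noise over triplicate slides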
# assay-conditions: fibrinogen-A647 binding fluorescence, higher = more signal
property-measured: composite z-score

[[record]]
compound = "CCOC(=O)C1=CC[C@@H](c2ccc(C(F)(F)F)cc2)N(S(=O)(=O)c2ccc(C)cc2)[C@H]1c1ccccc1"
result_value = 0.955

[[record]]
compound = "CC(C)(C)OC(=O)CC[C@@]1(C(=O)N2CCCCC2)N=C(c2ccc(OCCCO)cc2)O[C@@H]1c1ccccc1"
result_value = 1.02

[[record]]
compound = "CCCCN1CC=CC23O[C@@H]4/C=C\\CCCOC(=O)C4[C@H]2C(=O)N(CCCCCO)[C@@H]3C1=O (some centres not stated)"
result_value = -0.918

[[record]]
compound = "O=C1C2C=CC(C(O)c3cc(C(F)(F)F)cc(C(F)(F)F)c3)N(Nc3ccccc3)C2C(=O)N1c1ccccc1 (configuration not stated)"
result_value = 0.462

[[record]]
compound = "Cc1ccc([C@H]2C(C(=O)O)=CCN2S(=O)(=O)c2ccc(C)cc2)cc1"
result_value = -0.169

[[record]]
compound = "COc1cc2c(cc1OC)CN(C(=O)[C@H]1[C@@H]3C(=O)O[C@@H](c4ccccc4)[C@@H](c4ccccc4)N3[C@@H](c3ccccc3OCCO)[C@]13C(=O)Nc1ccc(C#CCCO)cc13)CC2"
result_value = 0.871

[[record]]
compound = "CCCC=C(CCC)[C@@H](NC(=O)OCC(C)C)c1ccccc1"
result_value = 0.471

[[record]]
compound = "C=CCC(OC(C)=O)[C@@H]1[C@@H](N(Cc2cc3ccccc3o2)C(=O)Cc2ccc(OC)cc2)c2cc(OCCCO)ccc2N1C(=O)c1ccc2ccccc2c1 (some centres not stated)"
result_value = -1.19

[[record]]
compound = "[N-]=[N+]=Nc1ccccc1C[C@]1(C(=O)N2CCCCC2)COC(c2ccc(OCCCO)cc2)=N1"
result_value = 1.01

[[record]]
compound = "CC(C)(C)OC(=O)CC[C@]1(C(=O)NCCN2CCOCC2)COC(c2ccc(OCCCO)cc2)=N1"
result_value = 0.46

[[record]]
compound = "CC(C)OC(=O)C=C1C[C@@H](c2cccc(Cl)c2)O[C@@H](c2cccc(Cl)c2)O1"
result_value = -0.105

[[record]]
compound = "O=C1O[C@H](c2ccccc2)[C@H](c2ccccc2)N2[C@H]1[C@@H](C(=O)N1CCN(c3ncccn3)CC1)[C@]1(C(=O)Nc3ccc(C#CC4=CCCCC4)cc31)[C@H]2c1ccccc1OCCO"
result_value = 0.916

[[record]]
compound = "O=C1NC(=O)C2C1C=CC(C(O)c1ccc(I)cc1)N2Nc1ccc(Cl)cc1Cl (configuration not stated)"
result_value = 0.978

[[record]]
compound = "O=C1N(CCS(=O)(=O)c2ccccc2)c2ccccc2[C@@H]2OC(c3ccc(OCCCO)cc3)=N[C@]12Cc1ccccc1"
result_value = 0.959

[[record]]
compound = "CCCCCCc1nc(-c2ccc(-c3ccc(Cl)c(Cl)c3)o2)c(C)c2c1[Si](C(C)C)(C(C)C)OC2"
result_value = -0.086

[[record]]
compound = "CC(C)[Si](C#CCCCC#N)(Oc1ccccc1Br)C(C)C"
result_value = 0.709

[[record]]
compound = "COc1ccc(NC(=O)O[C@H]2[C@H](OC(=O)c3cc4ccccc4[nH]3)[C@@H](OC(=O)c3cc4ccccc4[nH]3)[C@@H](OC)O[C@@H]2CO)cc1"
result_value = 0.662

[[record]]
compound = "CC(=O)Nc1cc(Br)ccc1C(=O)NCc1ccccc1"
result_value = 0.402

[[record]]
compound = "CCCCC(=C=CC[C@@H](O)c1cccc(OCCO)c1)C[C@@H](O)c1ccccn1"
result_value = 0.837

[[record]]
compound = "CCCNC(=O)[C@@]1(Sc2ccc(C)cc2)CC(=O)N(Cc2ccccc2C(F)(F)F)[C@@H]1c1ccc(CO)cc1I"
result_value = 0.956

[[record]]
compound = "NC(=O)NCC#Cc1ccc2c(c1)[C@]1(C(=O)N2)[C@H](C(=O)O)[C@H]2C(=O)O[C@H](c3ccccc3)[C@H](c3ccccc3)N2[C@@H]1c1ccc(O)cc1"
result_value = 0.972

[[record]]
compound = "CC#CC(=O)Oc1ccc(Br)cc1C=CC(=O)OCC"
result_value = -0.382

[[record]]
compound = "O=C1C2C=CC(C(O)c3c(F)cccc3Cl)N(Nc3ccccc3F)C2C(=O)N1c1ccccc1 (configuration not stated)"
result_value = 0.926

[[record]]
compound = "O=C1OCCC=C[C@H]2OC34C=CCN(CCN5CCOCC5)C(=O)[C@H]3N(CCCCCO)C(=O)[C@@H]4C12 (some centres not stated)"
result_value = 0.709

[[record]]
compound = "CCCCN1CC=CC23O[C@@H]4C=CCOC(=O)[C@@H]4[C@H]2C(=O)N(CCCCCCO)[C@@H]3C1=O (some centres not stated)"
result_value = -2.1

[[record]]
compound = "CCCCC(=C=CC[C@@H](O)c1ccc(CO)o1)CCO"
result_value = -0.313

[[record]]
compound = "CCCC(=O)N(CCc1c[nH]c2ccccc12)[C@@H]1CC(C(=O)NCCO)=C[C@H](Oc2c(I)cc(CO)cc2OC)[C@H]1O"
result_value = -1.04

[[record]]
compound = "O=C1OCCC=C[C@H]2OC34C=CCN(Cn5nnc6ccccc65)C(=O)[C@H]3N(CCO)C(=O)[C@@H]4C12 (some centres not stated)"
result_value = -0.934

[[record]]
compound = "C=C[C@H](C)[C@@H](OC(=O)Nc1ccc(SC)cc1)c1ccc(O)c2ccccc12"
result_value = 0.294

[[record]]
compound = "O=C1C2C=CC(C(O)c3ccc(-c4ccccc4)s3)N(Nc3ccccc3)C2C(=O)N1c1ccccc1 (configuration not stated)"
result_value = 0.974

[[record]]
compound = "COc1ccc([Si](C)(C)[C@H]2[C@H](CC(=O)N3CCC[C@H]3CO)O[C@@]3(C(=O)N(Cc4cccc(N5CCOC5=O)c4)c4ccccc43)[C@@H]2C)cc1"
result_value = 0.405

[[record]]
compound = "Cc1ccc(S[C@]2(C(=O)O)CC(=O)N(Cc3ccccc3C(F)(F)F)[C@@H]2c2ccc(CO)cc2I)cc1"
result_value = 0.0184

